For each record, write down the corresponding GI50.
- System: A549
- experiment.description: NCI tumour cell line growth inhibition, 48 h
The source made the active and inactive calls. No stated cut-off is given here; in the data, active = GI50 up to about 1.1 µM and inactive = higher.

Here are 5 compounds together with their reported answers.
compound	assay.value
CN(C)CC1CC/C(=C\c2ccc(O)cc2)C1=O (centres undefined)	19 µM (inactive)
COc1ccc(NC(=S)NN=C(C)c2cccc(C(C)=NNC(=S)Nc3ccc(OC)cc3)n2)cc1	23.7 µM (inactive)
Cc1ccc(C2CC(c3ccc([N+](=O)[O-])cc3)=Nc3ccccc3S2)cc1 (centres undefined)	22.3 µM (inactive)
COc1nc(C#CC(C)(C)C)nc(OC)n1	25.4 µM (inactive)
COc1ccc(NN=C2C(=O)CCC2=O)cc1	18.3 µM (inactive)

Field: GI50. Fill in for each record below.
1. Cc1cc(C)nc(NS(=O)(=O)c2ccc(NC(=O)c3cccc4c(NNc5ccc(S(=O)(=O)N=C(N)N)cc5)c5ccccc5nc34)cc2)n1
2. Cc1nccn1S(=O)(=O)c1ccc(Br)cc1Br
3. C/C(CN1C(=O)c2ccccc2C1=O)=N\NS(=O)(=O)c1ccc(Br)cc1
4. CN(C)/C=N/S(=O)(=O)c1nn2c(C=O)c(-c3cc4ccccc4oc3=O)nc2s1

Outgoing:
> 50 µM (inactive)
25.9 µM (inactive)
> 100 µM (inactive)
13 µM (inactive)
